# Test system: MAP3K15
# cond: Compound Concentration (nM):1000;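 note: KINOMEscan scanMAX binding as percent activity remaining versus control; lower means stronger binding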
measuredEndpoint: Percent Control (%)

* COc1cc(C=NNc2ncnc3c2cnn3-c2ccccc2)ccc1O [GW513184X] | 100
* NS(=O)(=O)c1ccc(N/N=C2\C(=O)Nc3ccc(-c4cnco4)cc32)cc1 | 75
* COc1cc(/C=N/Nc2ncnc3[nH]ncc23)ccc1O [GW578748X] | 96
* CN(C)CCNC(=O)Nc1ccc(N(C)c2ccnc(Nc3ccc(CS(C)(=O)=O)cc3)n2)cc1.Cl [GW830900A] | 100
* CC1=C(C(=O)Nc2ccc3[nH]ncc3c2)C(c2ccc3ccccc3c2)CC(=O)N1 (centres unmarked) [GSK270822A] | 73

###

# System: MERTK
# cond: Compound Concentration (nM):1000
Quick rule for you: Percent Control under 90% gets fulfilled, anything else gets not fulfilled.

- COc1cc(C)c(N(C)C(=O)CN(C)C)cc1Nc1nc(Nc2cccc(F)c2C(N)=O)c2cc[nH]c2n1: fulfilled
- COc1cc2ncnc(Nc3ccc4c(cnn4Cc4ccccc4)c3)c2cc1OC.Cl [GW282449A]: fulfilled
- COc1cc(C=NNc2ncnc3c2cnn3-c2ccccc2)ccc1O [GW513184X]: not fulfilled
- CN(C)c1cc2c(Nc3ccc4c(cnn4Cc4ccccc4)c3)ncnc2cn1 [GW282974X]: not fulfilled
- CCc1ccc(Oc2nccc(-c3c(-c4ccc(F)cc4)ncn3C3CCNCC3)n2)cc1: not fulfilled
- Cl.O=C(O[C@H]1CN[C@H](C#Cc2cc3ncnc(Nc4ccc5c(cnn5Cc5ccccc5)c4)c3s2)C1)N1CCOCC1 [GSK200398A]: not fulfilled
- COc1ccc2c(-c3ccnc(Nc4cccc(OC(F)(F)F)c4)n3)cnn2n1 [GW810372X]: not fulfilled
- Cc1cc(O)cc(C)c1/C=C/c1cncc(C(N)=O)c1 [GW435821X]: not fulfilled
- CCn1c(-c2nonc2N)nc2c(C#CC(C)(C)O)nc(OCCNC)cc21.Cl: fulfilled
- COc1cc(N2CCN(C(C)C)CC2)ccc1Nc1nc(Nc2ccc(F)cc2C(=O)NC[C@@H](O)CO)c2cc[nH]c2n1 [GSK1392956A]: fulfilled
- CCS(=O)(=O)c1ccc(OC)c(Nc2ncc(-c3cccc(OC)c3)o2)c1 [GW580509X]: fulfilled
- COc1ccc2[nH]c3c4[nH]c5ccc(OC)cc5c4c4c(c3c2c1)C(=O)NC4=O [GW296115X]: fulfilled
- COc1cc2ncn(-c3cc(O[C@H](C)c4ccccc4Cl)c(C(N)=O)s3)c2cc1OC [GSK237701A]: fulfilled
- CC(C)COC(=O)c1ccc2c(c1)/C(=C/Nc1ccc(S(N)(=O)=O)cc1)C(=O)N2 [GW416981X]: not fulfilled
- NS(=O)(=O)c1ccc(N/N=C2\C(=O)Nc3ccc(Cl)cc32)cc1 [GW280670X]: not fulfilled
- Nc1ncnc2occ(-c3ccc(NC(=O)Nc4cc(C(F)(F)F)ccc4F)cc3)c12 [GW770249X]: fulfilled
- COc1cccc(-c2c[nH]c3c(N/N=C/c4ccncc4)ncnc23)c1 [GW814408X]: not fulfilled

###

// values below are reported Percent Control
# Tested on: TXK
# cond: Compound Concentration (nM):1000
measuredEndpoint: Percent Control

• Cl.O=C(Nc1ccc(Oc2ccc3[nH]c(NC(=O)c4ccco4)nc3c2)cc1)Nc1cc(C(F)(F)F)ccc1F [GW683134A] = 80%
• C/C(Nc1ccc(S(N)(=O)=O)cc1)=C1/C(=O)Nc2ccccc21 [GW335962X] = 100%
• COc1cc(/C=N/Nc2ncnc3[nH]ncc23)ccc1O [GW578748X] = 83%
• CCS(=O)(=O)c1ccc(OC)c(Nc2ncc(-c3cccc(OC)c3)o2)c1 [GW580509X] = 74%
• COc1cc(N2CCN(C(C)C)CC2)ccc1Nc1nc(Nc2ccc(F)cc2C(=O)NC[C@@H](O)CO)c2cc[nH]c2n1 [GSK1392956A] = 92%
• CCc1ccc(Oc2nccc(-c3c(-c4ccc(F)cc4)ncn3C3CCNCC3)n2)cc1 = 91%
• COc1ccc2cc(-c3c(-c4ccncc4)nc(-c4ccc(S(C)(=O)=O)cc4C)n3C)ccc2c1 = 90%
• NS(=O)(=O)c1ccc(N/N=C2\C(=O)Nc3ccc(-c4cnco4)cc32)cc1 = 76%
• COc1cc2ncnc(Nc3ccc4c(cnn4Cc4ccccc4)c3)c2cc1OC.Cl [GW282449A] = 100%
• Cc1cc(O)cc(C)c1/C=C/c1cncc(C(N)=O)c1 [GW435821X] = 100%
• CCn1c(-c2nonc2N)nc2c(C#CC(C)(C)O)nc(OCCNC)cc21.Cl = 100%
• COC(=O)Nc1nc2ccc(Oc3ccc(NC(=O)Nc4cc(C(F)(F)F)ccc4F)cc3)cc2s1.Cl [GW693917A] = 77%
• COc1cc(C)c(N(C)C(=O)CN(C)C)cc1Nc1nc(Nc2cccc(F)c2C(N)=O)c2cc[nH]c2n1 = 90%
• CN(C)c1cc2c(Nc3ccc4c(cnn4Cc4ccccc4)c3)ncnc2cn1 [GW282974X] = 89%
• COc1cc2ncn(-c3cc(O[C@H](C)c4ccccc4Cl)c(C(N)=O)s3)c2cc1OC [GSK237701A] = 96%
